Recorded values, source ChEMBL document CHEMBL4354838.

- STUDY TARGET: Histone deacetylase 1 (Homo sapiens, UniProt Q13547)
- Sequence (Q13547 whole entry): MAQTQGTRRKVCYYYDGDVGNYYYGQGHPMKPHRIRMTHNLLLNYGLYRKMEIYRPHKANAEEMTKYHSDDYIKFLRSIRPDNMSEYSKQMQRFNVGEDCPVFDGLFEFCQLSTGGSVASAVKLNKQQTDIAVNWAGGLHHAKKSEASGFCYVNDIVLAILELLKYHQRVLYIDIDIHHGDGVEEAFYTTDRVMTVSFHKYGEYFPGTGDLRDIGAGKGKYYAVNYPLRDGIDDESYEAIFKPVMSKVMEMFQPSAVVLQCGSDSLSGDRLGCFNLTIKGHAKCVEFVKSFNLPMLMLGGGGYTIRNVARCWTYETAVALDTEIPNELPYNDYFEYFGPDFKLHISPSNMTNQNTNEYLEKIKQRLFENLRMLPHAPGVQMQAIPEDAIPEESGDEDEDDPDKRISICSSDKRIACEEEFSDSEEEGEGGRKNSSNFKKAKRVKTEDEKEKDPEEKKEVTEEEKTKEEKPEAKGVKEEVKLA
- PROTOCOL: biochemical
- Assay type: cell-based
- Description: Inhibition of recombinant His6/GST-tagged human HDAC1 expressed in baculovirus infected High5 insect cells using Ac-Lys-Tyr-Lys(epsilon-acetyl)-AMC as substrate after 24 hrs by fluorescence based assay
Here, each record is paired with measured IC50 data.

# SMILES STRING, STUDY TARGET, UNIT DESCRIPTOR, IC50
data = [
    ("CC(C)Cc1sc(-c2nccs2)nc1C(=O)Nc1ccc(/C=C/C(=O)NO)cc1", "Histone deacetylase 1 (Homo sapiens, UniProt Q13547)", "µM", 0.66),
    ("O=C(NO)c1ccc(C2(NC(=O)c3nc(-c4nccs4)sc3C3CC3)CC2)cc1", "Histone deacetylase 1 (Homo sapiens, UniProt Q13547)", "µM", 0.0223),
    ("CC(C)(NC(=O)c1nc(-c2nccs2)sc1C1CC1)c1ccc(C(=O)NO)cc1", "Histone deacetylase 1 (Homo sapiens, UniProt Q13547)", "µM", 0.163),
]
